Protocol Text: Inhibition of Wnt reporter activity in human SW480 cells by cell based assay
Type: functional
Observable: IC50 (µM)
The response must be a number in µM with no trailing unit.

The reported IC50 of the compound CCOC(=O)C[C@@H](NC(=O)[C@@H](Cc1ccc2ccccc2c1)NC(=O)Cc1cc2cc(Cl)ccc2[nH]1)C(=O)N[C@H](CC(=O)OCC)C(=O)OC was 29

###

Protocol Text: Antiproliferative activity against human LNCaP-abl cells assessed as inhibition of cell proliferation incubated for 5 days by Cell Titer-Fluor assay
Type: functional, cell-based
Condition Info: 120 h
Observable: IC50

The reported IC50 of the compound COc1cc(OC)cc(N2CC(=O)N(CCCOC(C)C)CC(=O)N(C(C)c3ccc(O)cc3)CC(=O)N(C(C)c3ccc(O)cc3)CC(=O)N[C@H](C)C(=O)N(CCc3ccccc3Oc3ccccc3)CC2=O)c1 (stereo partly specified) was 0.2 µM

###

System: TCF4-CTNNB1 complex (Homo sapiens)
Sequence (P35222 whole entry): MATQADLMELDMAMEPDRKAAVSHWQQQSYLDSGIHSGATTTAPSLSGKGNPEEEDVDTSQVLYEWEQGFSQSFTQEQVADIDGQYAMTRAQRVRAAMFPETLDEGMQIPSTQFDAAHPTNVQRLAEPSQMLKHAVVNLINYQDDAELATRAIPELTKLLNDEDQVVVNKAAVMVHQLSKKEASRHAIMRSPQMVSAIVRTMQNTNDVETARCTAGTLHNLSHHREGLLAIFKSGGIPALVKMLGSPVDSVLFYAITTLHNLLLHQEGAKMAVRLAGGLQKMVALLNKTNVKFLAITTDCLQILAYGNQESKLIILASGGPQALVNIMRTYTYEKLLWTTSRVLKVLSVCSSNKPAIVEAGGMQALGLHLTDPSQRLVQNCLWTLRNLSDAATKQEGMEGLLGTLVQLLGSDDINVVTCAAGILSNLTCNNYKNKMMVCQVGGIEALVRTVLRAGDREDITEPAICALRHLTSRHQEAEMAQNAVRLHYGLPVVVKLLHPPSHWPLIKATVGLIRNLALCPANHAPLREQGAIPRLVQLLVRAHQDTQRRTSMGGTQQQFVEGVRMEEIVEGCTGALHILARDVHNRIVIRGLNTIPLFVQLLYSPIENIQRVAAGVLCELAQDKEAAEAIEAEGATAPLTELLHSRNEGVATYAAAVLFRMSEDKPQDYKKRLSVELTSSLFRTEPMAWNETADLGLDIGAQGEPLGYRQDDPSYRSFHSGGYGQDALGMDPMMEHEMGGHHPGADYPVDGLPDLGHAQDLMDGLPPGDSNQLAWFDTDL
Sequence (P15884 whole entry): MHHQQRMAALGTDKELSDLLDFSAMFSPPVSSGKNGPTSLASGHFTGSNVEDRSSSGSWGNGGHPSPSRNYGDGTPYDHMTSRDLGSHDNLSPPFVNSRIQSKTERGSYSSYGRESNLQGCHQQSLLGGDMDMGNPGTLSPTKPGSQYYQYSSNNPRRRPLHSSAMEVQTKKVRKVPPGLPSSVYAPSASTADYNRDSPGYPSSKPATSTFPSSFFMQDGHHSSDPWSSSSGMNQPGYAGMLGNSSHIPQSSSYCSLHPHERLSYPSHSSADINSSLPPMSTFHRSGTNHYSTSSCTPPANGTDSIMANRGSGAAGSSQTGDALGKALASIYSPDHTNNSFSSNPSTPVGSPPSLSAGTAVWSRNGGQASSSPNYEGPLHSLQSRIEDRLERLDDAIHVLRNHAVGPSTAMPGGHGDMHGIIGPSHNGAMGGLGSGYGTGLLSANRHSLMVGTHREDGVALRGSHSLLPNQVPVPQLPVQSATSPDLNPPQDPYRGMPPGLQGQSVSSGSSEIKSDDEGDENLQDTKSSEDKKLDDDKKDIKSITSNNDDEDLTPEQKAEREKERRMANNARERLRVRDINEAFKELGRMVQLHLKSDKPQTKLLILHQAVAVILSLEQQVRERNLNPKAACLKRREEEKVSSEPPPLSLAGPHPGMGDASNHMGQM
Protocol Text: Inhibition of His-tagged beta-catenin (134 to 668 residues)/CM-5 sensor chip immobilized N-terminal GST-tagged TCF4 interaction (unknown origin) preincubated with beta-catenin for 15 mins followed by TCF4 addition measured after 60 secs by SPR analysis
Observable: IC50 (µM)
The response must be a number in µM with no trailing unit.

The reported IC50 of the molecule CCc1ccc(OCc2nnc(SC3CCCC3=O)n2C(C)c2ccccc2)cc1 (stereo unspecified) was 24

###

Protocol Text: Antiproliferative activity against human LNCaP-95 cells assessed as inhibition of cell proliferation incubated for 5 days by Cell Titer-Fluor assay
Assay type: functional, cell-based
Condition Info: LNCaP-95, 120 h
Observable: pIC50
# pIC50: negative log10 of molar concentration; output just the value

The reported pIC50 of the molecule COc1cc(OC)cc(N2CC(=O)N(CCCOC(C)C)CC(=O)N(C(C)c3ccc(O)cc3)CC(=O)N(C(C)c3ccc(O)cc3)CC(=O)N[C@H](C)C(=O)N(CCc3ccccc3Oc3ccccc3)CC2=O)c1 (stereo partly specified) was 6.10

Cited source for all entries: ChEMBL document CHEMBL5104134
